# Test system: heart of neck-ligated Carausius morosus
# testSummary: Semi-exposed heart bioassay (heart beat rate)
# Type: in vivo
# particulars: 20 pmol peptide in 150 μl; heart rate increase relative to Carmo-HrTH-II = 100; NS = no significant increase
Threshold rule: % Activity relative to the effect of Carmo-HrTH-II (myotropic) greater than or equal to 20% is t; below that, f.

For orientation, consider the following solved cases.
# substance, labelClass
measured = [
    ("pGlu-Leu-Thr-Phe-Thr-Pro-Ser-Trp amide [Aedae-AKH, naturally-occurring AKH octapeptide bioanalog, reference compound]", "f"),
    ("pGlu-Leu-Asn-Phe-Thr-Pro-Asn-Trp-Gly-Ser amide [Phymo-AKH, naturally-occurring AKH decapeptide bioanalog, reference compound]", "f"),
    ("pGlu-Leu-Thr-Phe-Thr-Pro-Asn-Trp-Gly-Thr OH [Carmo-HrTH-II: free C-terminus]", "t"),
    ("pGlu-Leu-Ala-Phe-Thr-Pro-Asn-Trp-Gly-Thr amide [Ala^3-Carmo-HrTH-II]", "f"),
    ("pGlu-Leu-Asn-Phe-Thr-Pro-Asn-Trp amide [Pyrap-AKH, naturally-occurring AKH octapeptide bioanalog, reference compound]", "f"),
]

Say whether pGlu-Leu-Asn-Phe-Thr-Pro-Asn-Trp-Gly-Thr amide [Locmi-AKH-I, naturally-occurring AKH decapeptide bioanalog, reference compound] shows % Activity relative to the effect of Carmo-HrTH-II (myotropic) of 20% or more.
t

Hi team, for pGlu-Leu-Thr-Phe-Thr-Pro-Asn-Trp-Gly-Thr amide [Carmo-HrTH-II, reference compound] , is the recorded % Activity relative to the effect of Carmo-HrTH-II (myotropic) at or above 20%?
t

Check the entry Leu-Thr-Phe-Thr-Pro-Asn-Trp-Gly-Thr amide : does % Activity relative to the effect of Carmo-HrTH-II (myotropic) equal or exceed 20%?
t

====

# System: ligated 6th instar Indian stick insects (Carausius morosus)
# testSummary: Carbohydrate-mobilization (hypertrehalosemic) in vivo assay
# particulars: 90 min after injection of 20 pmol peptide in 10 μl; neck-ligated 6th instar nymphs
quantityMeasured: Hemolymph carbohydrates, 90 min (mg/mL)
Express your answer in mg/mL, writing the number without its unit.

# substance, quantityMeasured, experimentalResult
records = [
    ("pGlu-Leu-Thr-Phe-Thr-Pro-Asn-Trp-Gly-Thr OH [Carmo-HrTH-II: free C-terminus]", "Hemolymph carbohydrates, 90 min", 10.4),
    ("pGlu-Leu-Asn-Phe-Thr-Pro-Asn-Trp amide [Pyrap-AKH, naturally-occurring AKH octapeptide bioanalog, reference compound]", "Hemolymph carbohydrates, 90 min", 9.2),
    ("pGlu-Leu-Asn-Phe-Thr-Pro-Asn-Trp-Gly-Thr amide [Locmi-AKH-I, naturally-occurring AKH decapeptide bioanalog, reference compound]", "Hemolymph carbohydrates, 90 min", 9.9),
]

Let's switch to this substance now.
Reported Hemolymph carbohydrates, 90 min of pGlu-Leu-Thr-Phe-Thr-Ala-Asn-Trp-Gly-Thr amide [Ala^6-Carmo-HrTH-II] : 11.1

====

# System: heart of neck-ligated Carausius morosus
# testSummary: Semi-exposed heart bioassay (heart beat rate)
# Format: in vivo
# particulars: in saline before application; neck-ligated stick insects, semi-exposed heart
Hi! Just check whether Heart rate, Pre-application is below 40 beats min^−1. Below gives YES, equal or above gives NO.

Answered cases to consult:
# substance, targetOrSystem, labelClass
records = [
    ("pGlu-Leu-Thr-Phe-Thr-Pro-Asn-Ala-Gly-Thr amide [Ala^8-Carmo-HrTH-II]", "heart of neck-ligated Carausius morosus", "NO"),
    ("pGlu-Leu-Thr-Phe-Thr-Pro-Ser-Trp amide [Aedae-AKH, naturally-occurring AKH octapeptide bioanalog, reference compound]", "heart of neck-ligated Carausius morosus", "NO"),
    ("pGlu-Leu-Ala-Phe-Thr-Pro-Asn-Trp-Gly-Thr amide [Ala^3-Carmo-HrTH-II]", "heart of neck-ligated Carausius morosus", "YES"),
    ("pGlu-Leu-Thr-Phe-Thr-Pro-Asn-Trp-Gly-Ser amide [Phyle-CC, naturally-occurring AKH decapeptide bioanalog, reference compound]", "heart of neck-ligated Carausius morosus", "YES"),
    ("pGlu-Leu-Thr-Phe-Thr-Ala-Asn-Trp-Gly-Thr amide [Ala^6-Carmo-HrTH-II]", "heart of neck-ligated Carausius morosus", "NO"),
]

Hello, I'm reviewing records and need to know if Heart rate, Pre-application of pGlu-Ala-Thr-Phe-Thr-Pro-Asn-Trp-Gly-Thr amide [Ala^2-Carmo-HrTH-II] is below 40 beats min^−1. Could you check?
NO

Does the reported Heart rate, Pre-application of the following substance sit strictly below 40 beats min^−1? pGlu-Leu-Asn-Phe-Thr-Pro-Asn-Trp-Gly-Ser amide [Phymo-AKH, naturally-occurring AKH decapeptide bioanalog, reference compound]
YES

Source of measurements: paper PMC7198766
